- Protocol details: Rat bioavailability study
- Format: in vivo
- Conditions: plasma, PO 10 mg/kg in 10% acacia, Example 1 dosed as mesylate salt
Measured endpoint: AUC (ng·h/mL)
The answer is to be given in ng·h/mL; state only the numeric part.

Reported AUC for Cn1cc(-c2ccc3nnc(Sc4ccc5nn(C)cc5c4)n3n2)cn1 was 73800

----------
- Protocol details: Plasma concentration in IVTI studies
- Assay type: in vivo
- Conditions: athymic nude, mouse, oral, 10% acacia, 8 mg/kg, read-out: Plasma conc. 8 mg/Kg after 8 h
Measured endpoint: concentration at 8 h (ng/mL)
Just the number in ng/mL, nothing appended.

Value of measured concentration at 8 h for the entry Cn1cc(-c2ccc3nnc(Sc4ccc5nn(C)cc5c4)n3n2)cn1 : 141

----------
- Target: Met (pY1349) in NCl-H460 cells (Homo sapiens, UniProt P08581)
- Sequence (P08581 25-1390): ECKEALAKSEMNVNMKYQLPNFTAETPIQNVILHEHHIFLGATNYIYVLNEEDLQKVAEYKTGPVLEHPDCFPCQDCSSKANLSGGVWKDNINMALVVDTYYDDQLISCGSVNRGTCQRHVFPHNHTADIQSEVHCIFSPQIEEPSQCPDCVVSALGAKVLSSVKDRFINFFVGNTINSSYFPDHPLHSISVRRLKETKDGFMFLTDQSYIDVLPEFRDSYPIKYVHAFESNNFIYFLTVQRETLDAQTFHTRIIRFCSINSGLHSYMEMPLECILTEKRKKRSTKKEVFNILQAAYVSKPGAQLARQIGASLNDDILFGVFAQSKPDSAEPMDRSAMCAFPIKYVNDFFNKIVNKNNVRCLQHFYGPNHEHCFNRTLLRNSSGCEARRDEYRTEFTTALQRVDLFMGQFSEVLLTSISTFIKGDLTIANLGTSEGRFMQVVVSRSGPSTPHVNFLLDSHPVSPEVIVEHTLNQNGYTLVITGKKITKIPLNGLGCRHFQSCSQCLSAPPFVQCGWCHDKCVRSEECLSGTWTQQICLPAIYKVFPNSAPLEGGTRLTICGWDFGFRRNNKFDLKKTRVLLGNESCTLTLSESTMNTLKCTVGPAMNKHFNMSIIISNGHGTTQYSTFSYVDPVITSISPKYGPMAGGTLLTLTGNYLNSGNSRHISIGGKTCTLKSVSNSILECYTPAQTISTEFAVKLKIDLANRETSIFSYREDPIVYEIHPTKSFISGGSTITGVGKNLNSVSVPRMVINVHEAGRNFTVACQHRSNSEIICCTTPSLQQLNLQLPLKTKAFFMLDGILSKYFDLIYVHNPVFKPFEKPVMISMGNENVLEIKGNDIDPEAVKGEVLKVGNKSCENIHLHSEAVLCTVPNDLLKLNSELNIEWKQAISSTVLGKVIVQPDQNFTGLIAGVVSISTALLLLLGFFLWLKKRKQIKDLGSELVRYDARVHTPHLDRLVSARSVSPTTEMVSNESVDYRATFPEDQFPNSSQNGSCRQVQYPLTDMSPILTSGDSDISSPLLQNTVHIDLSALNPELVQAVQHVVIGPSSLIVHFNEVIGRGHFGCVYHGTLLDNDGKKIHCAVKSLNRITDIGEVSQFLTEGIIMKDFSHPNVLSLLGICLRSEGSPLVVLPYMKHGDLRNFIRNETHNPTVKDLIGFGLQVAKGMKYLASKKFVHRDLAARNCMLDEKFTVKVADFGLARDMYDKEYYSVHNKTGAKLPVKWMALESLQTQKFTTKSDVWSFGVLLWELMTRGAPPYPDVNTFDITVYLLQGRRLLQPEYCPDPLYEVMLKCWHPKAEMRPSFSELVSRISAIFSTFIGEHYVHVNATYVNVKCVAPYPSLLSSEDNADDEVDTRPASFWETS
- Protocol details: HGF stimulated Met (pY1349) NCI-H460 cell-based ELISA
- Conditions: HGF 100 ng/mL stimulated NCI-H460 cells; read-out: relative IC50, H460 assay (c-Met phosphorylation)
Structures can show the parent of a compound that is named as a salt.
Measured endpoint: IC50 (nM)
State just the number; it will be interpreted in nM.

Cn1cc(-c2ccc3nnc(Sc4ccc5nn(C)cc5c4)n3n2)cn1 [Example 1]
36

Query compound follows.
Record Cn1cc(-c2ccc3nnc(Sc4ccc5nn(C)cc5c4)n3n2)cn1 [mesylate salt form of example 1] ; system Met (pY1349) in NCl-H460 cells (Homo sapiens, UniProt P08581); IC50 = 38

----------
- Protocol details: Dynamic solubility
- Type: physicochemical
- Conditions: thermodynamic from solid; simulated gastric fluid, 18 h ambient; read-out: Dynamic solubility, SGF
Measured endpoint: solubility at 18 h (µg/mL)
Give the quantity in µg/mL, number only.

Lookup result for Cn1cc(-c2ccc3nnc(Sc4ccc5nn(C)cc5c4)n3n2)cn1 ; measured solubility at 18 h: 52

----------
- Protocol details: Rat bioavailability study
- Format: in vivo
- Conditions: plasma, IV 1 mg/kg solution, Example 1 dosed as mesylate salt
Measured endpoint: clearance (mL/min/kg)
Kindly answer with a numeric value in mL/min/kg, unit omitted.

clearance for Cn1cc(-c2ccc3nnc(Sc4ccc5nn(C)cc5c4)n3n2)cn1 is 1.7

----------
- Protocol details: Plasma concentration in IVTI studies
- Assay type: in vivo
- Conditions: athymic nude, mouse, oral, 10% acacia, 20 mg/kg, read-out: Plasma conc. 20 mg/Kg after 8 h
- Procedure: In IVTI studies, each compound is administered orally and formulated in 10% w/v acacia. Mouse blood samples are collected with anti-coagulant (EDTA-purple top Vacutainer tube) post-dose using cardiac puncture techniques. Tubes are inverted for 3-5 times and are placed on ice until centrifugation at 3000 RPM (1800×g) for 10 min at 4° C. to obtain plasma. Aliquots of plasma are pipetted and stored in a clean 96 well plate. Plasma samples are stored immediately at −80° C. […]
Measured endpoint: concentration at 8 h (ng/mL)
I only need the number, in ng/mL, no unit after it.

Memo: Cn1cc(-c2ccc3nnc(Sc4ccc5nn(C)cc5c4)n3n2)cn1 , reported concentration at 8 h: 318

----------
- Protocol details: Dynamic solubility
- Assay type: physicochemical
- Conditions: water, thermodynamic from solid; read-out: Dynamic solubility, Water
- Source text: […]
Measured endpoint: solubility at 18 h

solubility at 18 h reading for Cn1cc(-c2ccc3nnc(Sc4ccc5nn(C)cc5c4)n3n2)cn1 [Example 1] : 9 µg/mL
